system: T47D; experiment: Inhibition of hypoxia-induced secreted VEGF expression in human T47D cells at 0.3 uM after 16 by ELISA; assay type: functional, cell-based
Calls of active or inactive are those of the source. The rule behind the calls is not given here.
Response enum: class 1 for active, class 0 for inactive

What classification did `CC[C@H]1CN2CCc3cc(OC)c(OC)cc3[C@@H]2C[C@@H]1C[C@@H]1NCCc2cc(O)c(OC)cc21` end up with in this test? class 0

---
Any idea what this test logged for C[C@@H]1C[C@@H]([C@H](O)CC2CC(=O)NC(=O)C2)C(=O)[C@@H](C)C1 [CYCLOHEXIMIDE] ? class 0

Which outcome was assigned to `CC[C@H]1CN2CCc3cc(O)c(OC)cc3[C@@H]2C[C@@H]1C[C@@]1(O)NCCc2cc(O)c(OC)cc21` in this test? class 0

I'd appreciate the recorded outcome for `CC[C@H]1CN2CCc3cc(OC)c(OC)cc3[C@@H]2C[C@@H]1C[C@@H]1NCCc2cc(O)c(O)cc21` from this test. class 0

Assay result, entry `CC[C@H]1CN2CCc3cc(OC)c(OC)cc3[C@@H]2C[C@@H]1C[C@H]1NCCc2cc(OC)c(OC)cc21` — outcome? class 1

The measurements presented in this section are drawn from ChEMBL document CHEMBL1158795.
